Numbers sourced from the supplement of paper PMC10598134.

assay: collision cross section of modified peptide (TIMS, N2, iRT-aligned); higher = larger / more extended gas-phase ion; conditions: charge state: 2; modification: Methyl (R)
Use 400 Å² as the dividing line for collision cross section, with the line itself on the fulfilled side and lower values as not fulfilled.

stdin: Hi team, for RGVGAGAIAK [_R(Methyl (R))GVGAGAIAK_] , is the recorded collision cross section at or above 400 Å²?
stdout: not fulfilled

stdin: Same for GRGYFEHR [_GR(Methyl (R))GYFEHR_]
stdout: not fulfilled

stdin: Another sequence: AQVLAGGRGK [_AQVLAGGR(Methyl (R))GK_]
stdout: not fulfilled

stdin: Same for AGRGFSLEELR [_AGR(Methyl (R))GFSLEELR_]
stdout: not fulfilled

stdin: How about LGILPVGRGK [_LGILPVGR(Methyl (R))GK_] ?
stdout: not fulfilled

stdin: Repeat with GEGGFGGRGGGR [_GEGGFGGR(Methyl (R))GGGR_]
stdout: not fulfilled

stdin: What would you report for SFDEVEGVFGRGGGR [_SFDEVEGVFGR(Methyl (R))GGGR_] ?
stdout: fulfilled

stdin: Same for GRGAAAAGGPQR [_GR(Methyl (R))GAAAAGGPQR_]
stdout: not fulfilled

stdin: Then GGGFGAHGRGR [_GGGFGAHGR(Methyl (R))GR_] ?
stdout: not fulfilled

stdin: Entry LRQQLQAK [_LR(Methyl (R))QQLQAK_] please
stdout: not fulfilled

stdin: // same read-out, input: VRLQTTLR [_VR(Methyl (R))LQTTLR_]
stdout: not fulfilled

stdin: Please give the result for GRGAPPPPPSR [_GR(Methyl (R))GAPPPPPSR_] too.
stdout: not fulfilled

stdin: Similarly, GLATFPSRGAK [_GLATFPSR(Methyl (R))GAK_] ?
stdout: not fulfilled

stdin: // next record AQPQDSRGGSK [_AQPQDSR(Methyl (R))GGSK_]
stdout: not fulfilled

stdin: // next record AAYQAAIRGVGSAQSR [_AAYQAAIR(Methyl (R))GVGSAQSR_]
stdout: fulfilled

stdin: Another sequence to look at: PRLPATGTFK [_PR(Methyl (R))LPATGTFK_]
stdout: not fulfilled

stdin: Also VEPIHAVVLPRGK [_VEPIHAVVLPR(Methyl (R))GK_] ?
stdout: fulfilled

stdin: And the next one, DFAFYNPRLQGK [_DFAFYNPR(Methyl (R))LQGK_] ?
stdout: fulfilled

stdin: Request: GGGDRGGFGPGK [_GGGDR(Methyl (R))GGFGPGK_]
stdout: not fulfilled

stdin: Try this sequence too: LLALSGPGGGRGR [_LLALSGPGGGR(Methyl (R))GR_]
stdout: not fulfilled

---

experiment: collision cross section of modified peptide (TIMS, N2, iRT-aligned); higher = larger / more extended gas-phase ion; settings: charge state: 2; modification: Glutarylation
I would appreciate it if you labelled entries Yes when collision cross section is 400 Å² or higher, otherwise No.

stdin: Does collision cross section meet or surpass 400 Å² for DLGKFQVATDALK [_DLGK(Gluratylation)FQVATDALK_] ?
stdout: Yes

stdin: Record: GAEKTEVAEPR [_GAEK(Gluratylation)TEVAEPR_]
stdout: No

stdin: Another sequence: VNIGQGSHPQKVK [_VNIGQGSHPQK(Gluratylation)VK_]
stdout: Yes

stdin: Do the same for ITGKNQVTATK [_ITGK(Gluratylation)NQVTATK_] please
stdout: No

stdin: Also, DESFLGKLGGTLAR [_DESFLGK(Gluratylation)LGGTLAR_] please.
stdout: Yes

stdin: And ASEALLKQLK [_ASEALLK(Gluratylation)QLK_] ?
stdout: No

stdin: Ok, now VGIDTPDIDIHGPEGKLK [_VGIDTPDIDIHGPEGK(Gluratylation)LK_]
stdout: Yes

stdin: Now try IGNSYFKEEK [_IGNSYFK(Gluratylation)EEK_] .
stdout: No

stdin: Likewise for VSPASSVDSNIPSSQGYKK [_VSPASSVDSNIPSSQGYK(Gluratylation)K_] ?
stdout: Yes

stdin: Please answer likewise for LGSPSGKTGTCR [_LGSPSGK(Gluratylation)TGTCR_]
stdout: No

stdin: Lookup IINEPTAAAIAYGLDKK [_IINEPTAAAIAYGLDK(Gluratylation)K_]
stdout: Yes

stdin: Now consider TTGFYSGFSEVAEKR [_TTGFYSGFSEVAEK(Gluratylation)R_] and answer again.
stdout: Yes

stdin: Next: LLEEEDSKLK [_LLEEEDSK(Gluratylation)LK_]
stdout: No

stdin: // repeat for PGGEGPQCEKTTDVK [_PGGEGPQCEK(Gluratylation)TTDVK_] and report
stdout: Yes

stdin: Let us now turn to DYSSGFGGKYGVQADR [_DYSSGFGGK(Gluratylation)YGVQADR_]
stdout: Yes

stdin: Another sequence to look at: IQTKAGEATVK [_IQTK(Gluratylation)AGEATVK_]
stdout: No
